Every entry's value here was drawn from patent US10669235B2.

Assay: PAMPA permeability assay
Format: in vitro ADME
Details: pH 7, PAMPA, pH 7, 10 μM, 5 hr
Where a name gives a salt, the structure may show the parent alone.
Binning scheme for Papp at 5 h, 10 µM: LOW: < 0.02 ×10⁻⁶ cm/s; MEDIUM: ≥ 0.02 ×10⁻⁶ cm/s and < 0.6 ×10⁻⁶ cm/s; HIGH: ≥ 0.6 ×10⁻⁶ cm/s

Consider the following illustrative entries.
compound: COC(=O)c1cc2c(cc1C)/C(=C(/Nc1ccc(C(=O)NCC3(N(C)C)CCOCC3)cc1)c1ccccc1)C(=O)N2 [Example 36]
assigned-class: HIGH
//
compound: COCCN1CCC(NC(=O)c2ccc(N/C(=C3\C(=O)Nc4cc(C(=O)OC)c(C)cc43)c3ccccc3)cc2)CC1 [Example 20]
assigned-class: LOW
//
compound: COC(=O)c1cc2c(cc1C)/C(=C(/Nc1ccc(S(=O)(=O)NCCN(C)C)cc1)c1ccccc1)C(=O)N2 [Example 25, formate]
assigned-class: HIGH
//
compound: COC(=O)c1cc2c(cc1C)/C(=C(/Nc1ccc(C(=O)NCCN3CCNC(=O)C3)cc1)c1ccccc1)C(=O)N2 [Example 9]
assigned-class: LOW
//
compound: COC(=O)c1cc2c(cc1C)/C(=C(/Nc1ccc(C(=O)N3CCC(CO)(CN(C)C)CC3)cc1)c1ccccc1)C(=O)N2 [Example 38]
assigned-class: MEDIUM

Prompt line: Band of COC(=O)c1cc2c(cc1C)/C(=C(/Nc1ccc(C(=O)NCCN3CCCN(C(C)=O)CC3)cc1)c1ccccc1)C(=O)N2 [Example 34] ?
Response line: LOW

Prompt line: Lab log: COCCN(C)CCNC(=O)c1ccc(N/C(=C2\C(=O)Nc3cc(C(=O)OC)c(C)cc32)c2ccccc2)cc1 [Example 35] — assign Papp at 5 h, 10 µM category
Response line: HIGH

Prompt line: Tag the class for CNC(=O)CN1CCN(C(=O)c2ccc(N/C(=C3\C(=O)Nc4cc(C(=O)OC)c(C)cc43)c3ccccc3)cc2)CC1 [Example 11]
Response line: MEDIUM

Prompt line: In plain terms, what class is COC(=O)c1cc2c(cc1C)/C(=C(/Nc1ccc(C(=O)N3CCC4(CC3)C(=O)NCCCN4C)cc1)c1ccccc1)C(=O)N2 [Example 43] ?
Response line: HIGH

Prompt line: GET /class?item= COC(=O)c1cc2c(cc1C)/C(=C(/Nc1ccc(C(=O)N3CCC(C(=O)NCCN(C)C)CC3)cc1)c1ccccc1)C(=O)N2 [Example 31]
Response line: LOW

Prompt line: Please let me know in which category the item COC(=O)c1cc2c(cc1C)/C(=C(/Nc1ccc(C(=O)N3CCC4(CC3)C(=O)NCCN4C)cc1)c1ccccc1)C(=O)N2 [Example 30] belongs.
Response line: MEDIUM

Prompt line: Which bin, given its Papp at 5 h, 10 µM, does COC(=O)c1cc2c(cc1C)/C(=C(/Nc1ccc(C(=O)NCCCN(C)C)cc1)c1ccccc1)C(=O)N2 [Example 22] occupy?
Response line: MEDIUM

Prompt line: Category of COC(=O)c1cc2c(cc1C)/C(=C(/Nc1ccc(C(=O)NCC3CCN(C)CC3)cc1)c1ccccc1)C(=O)N2 [Example 3, formate] , please.
Response line: LOW
